// provenance: the NIST ThermoML archive (doi:10.1016/j.fluid.2014.06.021)

Reported activity coefficient values for a set of compounds
# Assay notes: activity coefficient (dimensionless); of the first substance listed, at infinite dilution; xn = mol fraction of the nth substance listed
# Measurement conditions: 323.15 K; 101.33 kPa; Liquid; Chromatography; x1 = 0
Assay endpoint: activity coefficient

{"Compound": "c1ccccc1 [benzene] + C[n+]1ccn(CCCCS(=O)(=O)O)c1.O=S(=O)([O-])O", "Numeric readout": 14.4}
{"Compound": "CCc1ccccc1 [ethylbenzene] + C[n+]1ccn(CCCCS(=O)(=O)O)c1.O=S(=O)([O-])C(F)(F)F", "Numeric readout": 10.8}
{"Compound": "CCC(=O)CC [pentan-3-one] + C[n+]1ccn(CCCCS(=O)(=O)O)c1.O=S(=O)([N-]S(=O)(=O)C(F)(F)F)C(F)(F)F", "Numeric readout": 0.54}
{"Compound": "C#CCCCCC [1-heptyne] + C[n+]1ccn(CCCCS(=O)(=O)O)c1.O=S(=O)([O-])C(F)(F)F", "Numeric readout": 25.9}
{"Compound": "Cc1cccc(C)c1 [1,3-dimethylbenzene] + C[n+]1ccn(CCCCS(=O)(=O)O)c1.O=S(=O)([O-])O", "Numeric readout": 62.8}
{"Compound": "Cc1cccc(C)c1 [1,3-dimethylbenzene] + C[n+]1ccn(CCCCS(=O)(=O)O)c1.O=S(=O)([O-])C(F)(F)F", "Numeric readout": 10.4}
{"Compound": "CCc1ccccc1 [ethylbenzene] + C[n+]1ccn(CCCCS(=O)(=O)O)c1.O=S(=O)([N-]S(=O)(=O)C(F)(F)F)C(F)(F)F", "Numeric readout": 5.37}
{"Compound": "Cc1ccc(C)cc1 [1,4-dimethylbenzene] + C[n+]1ccn(CCCCS(=O)(=O)O)c1.O=S(=O)([O-])C(F)(F)F", "Numeric readout": 10.1}
{"Compound": "ClC(Cl)Cl [trichloromethane] + C[n+]1ccn(CCCCS(=O)(=O)O)c1.O=S(=O)([O-])C(F)(F)F", "Numeric readout": 2.12}
{"Compound": "CCCCCCCCCCC [undecane] + C[n+]1ccn(CCCCS(=O)(=O)O)c1.O=S(=O)([N-]S(=O)(=O)C(F)(F)F)C(F)(F)F", "Numeric readout": 515}
{"Compound": "C1CCCCCC1 [cycloheptane] + C[n+]1ccn(CCCCS(=O)(=O)O)c1.O=S(=O)([N-]S(=O)(=O)C(F)(F)F)C(F)(F)F", "Numeric readout": 92.5}
{"Compound": "CCC[N+](=O)[O-] [1-nitropropane] + C[n+]1ccn(CCCCS(=O)(=O)O)c1.O=S(=O)([O-])O", "Numeric readout": 7.05}
{"Compound": "CCCCCCCCCCCCCC [tetradecane] + C[n+]1ccn(CCCCS(=O)(=O)O)c1.O=S(=O)([O-])O", "Numeric readout": 1910}
{"Compound": "CCCCCCCCCC [decane] + C[n+]1ccn(CCCCS(=O)(=O)O)c1.O=S(=O)([N-]S(=O)(=O)C(F)(F)F)C(F)(F)F", "Numeric readout": 371}
